Ref: patent US20190015423A1

Examples of compounds with documented Average Incidence SD Away follow.
system: MLO-Y4 osteocytes; test: High-throughput drug screening of primary cilia length and incidence; type: cell-based; settings: 10 μM, 16 hours, triplicate; normalized to vehicle control; standard deviation away from the population average

[
  {
    "COMPOUND": "OCCN(CCO)c1nc(N2CCCCC2)c2nc(N(CCO)CCO)nc(N3CCCCC3)c2n1 [Dipyridamole (Persantine), Dipyridamole]",
    "Average Incidence SD Away (SD)": 2.055
  },
  {
    "COMPOUND": "CCCC(=O)OCOC(=O)C1=C(C)NC(C)=C(C(=O)OC)C1c1cccc(Cl)c1Cl (stereo not drawn)",
    "Average Incidence SD Away (SD)": 1.837
  },
  {
    "COMPOUND": "CN1CCN2c3ncccc3Cc3ccccc3C2C1 (stereo not drawn) [Mirtazapine (Remeron Avanza), Mirtazapine]",
    "Average Incidence SD Away (SD)": 1.681
  },
  {
    "COMPOUND": "CCCCOc1ccc(CC(=O)NO)cc1",
    "Average Incidence SD Away (SD)": 2.326
  },
  {
    "COMPOUND": "O=C[C@H](O)[C@@H](O)[C@H](O)[C@H](O)CO",
    "Average Incidence SD Away (SD)": 1.518
  },
  {
    "COMPOUND": "CCc1nc(N)nc(N)c1-c1ccc(Cl)cc1",
    "Average Incidence SD Away (SD)": 1.762
  },
  {
    "COMPOUND": "CN1[C@@H]2CC[C@H]1C[C@@H](OC(=O)C(CO)c1ccccc1)C2 (stereo partly drawn)",
    "Average Incidence SD Away (SD)": 1.694
  },
  {
    "COMPOUND": "NC[C@H]1CC[C@H](C(=O)O)CC1 [Tranexamic acid (Transamin), Tranexamic acid]",
    "Average Incidence SD Away (SD)": 1.582
  },
  {
    "COMPOUND": "Nc1nc(Cl)nc2c1ncn2[C@H]1C[C@H](O)[C@@H](CO)O1",
    "Average Incidence SD Away (SD)": 1.604
  }
]

###

Test system: MLO-Y4 osteocytes
Experiment: High-throughput drug screening of primary cilia length and incidence
Type: cell-based
Conditions: 10 μM, 16 hours, triplicate; normalized to vehicle control; standard deviation away from the population average
Protocol: MLO-Y4 osteocytes were maintained on collagen I-coated dishes in MEMα (Life_Technologies) supplemented with 5% fetal bovine serum (FBS), 5% calf serum (CS), and 1% penicillin/streptomycin (P/S) at 37° C. and 5% CO2. Osteocytes were then seeded onto 384-well collagen-coated plates for 72 hours before fixation. […] Each pair of nuclei and cilia images was first analyzed individually, then the entire population was examined to evaluate each compound's effect on cilia length and incidence. […]
Where a name gives a salt, the structure may show the parent alone.

[
  {
    "COMPOUND": "CCc1c2c(nc3ccc(OC(=O)N4CCC(N5CCCCC5)CC4)cc13)-c1cc3c(c(=O)n1C2)COC(=O)[C@]3(O)CC.Cl",
    "TESTED TARGET": "MLO-Y4 osteocytes",
    "Average Length SD Away": "1.894 SD"
  },
  {
    "COMPOUND": "CCCCC/N=c1\\ccn(Cc2ccccc2)c2ccccc12 [CP 339818 hydrochloride]",
    "TESTED TARGET": "MLO-Y4 osteocytes",
    "Average Length SD Away": "1.715 SD"
  },
  {
    "COMPOUND": "COc1c(C)c2c(c(O)c1C/C=C(\\C)CCC(=O)OCCN1CCOCC1)C(=O)OC2 [Mycophenolate mofetil (CellCept), Mycophenolate mofetil]",
    "TESTED TARGET": "MLO-Y4 osteocytes",
    "Average Length SD Away": "1.579 SD"
  },
  {
    "COMPOUND": "C[C@]12CC[C@@H]3c4ccc(O)cc4CC[C@H]3[C@@H]1CC[C@@H]2OC(=O)CCC1CCCC1 [ESTRADIOL CYPIONATE]",
    "TESTED TARGET": "MLO-Y4 osteocytes",
    "Average Length SD Away": "1.56 SD"
  },
  {
    "COMPOUND": "N=C1C=CC(=C(c2ccc(N)cc2)c2ccc(N)cc2)C=C1 [PARAROSANILINE PAMOATE]",
    "TESTED TARGET": "MLO-Y4 osteocytes",
    "Average Length SD Away": "2.389 SD"
  }
]
